ASSAY SUMMARY: physchem
Description: Dissociation constant (pKa)
Note to self: values exactly at 7 are T. So pKa at or above 7 is T, below is F.

Answered cases to consult:
CCn1cc(C(=O)NCC2=C(C(=O)O)N3C(=O)[C@@H](NC(=O)/C(=N\OC(C)(C)C(=O)O)c4csc(N)n4)[C@H]3SC2)c(=O)c2cc(O)c(O)nc21	F
CCN(CC1=C(C(=O)O)N2C(=O)[C@@H](NC(=O)/C(=N\OC(C)(C)C(=O)O)c3csc(N)n3)[C@H]2SC1)C(=O)c1cc(O)c(O)cc1F	T
CC(C)(O/N=C(\C(=O)N[C@@H]1C(=O)N2C(C(=O)O)=C(CNC(=O)c3cc(Cl)c(O)c(O)c3Cl)CS[C@H]12)c1csc(N)n1)C(=O)O	F
CCN(CC1=C(C(=O)O)N2C(=O)[C@@H](NC(=O)/C(=N\OC(C)(C)C(=O)O)c3csc(N)n3)[C@H]2SC1)C(=O)c1cc(O)c(O)c(Br)c1	T
CC(C)(O/N=C(\C(=O)N[C@@H]1C(=O)N2C(C(=O)O)=C(CNC(=O)c3cc(O)c(O)c(F)c3)CS[C@H]12)c1csc(N)n1)C(=O)O	T
CC(C)(O/N=C(\C(=O)N[C@@H]1C(=O)N2C(C(=O)O)=C(CNC(=O)c3cc(O)c(O)c(C#N)c3)CS[C@H]12)c1csc(N)n1)C(=O)O	F
CC(C)(O/N=C(\C(=O)N[C@@H]1C(=O)N2C(C(=O)O)=C(CNC(=O)c3cc(O)c(O)c([N+](=O)[O-])c3)CS[C@H]12)c1csc(N)n1)C(=O)O	F
CCO/N=C(\C(=O)N[C@@H]1C(=O)N2C(C(=O)O)=C(CNC(=O)c3cc(O)c(O)c([N+](=O)[O-])c3)CS[C@H]12)c1csc(N)n1	F
CC(C)(O/N=C(\C(=O)N[C@@H]1C(=O)N2C(C(=O)O)=C(CNC(=O)c3cc(O)c(O)cc3Br)CS[C@H]12)c1csc(N)n1)C(=O)O	T
CC(C)(O/N=C(\C(=O)N[C@@H]1C(=O)N2C(C(=O)O)=C(CNC(=O)c3ccc(O)c(O)c3Cl)CS[C@H]12)c1csc(N)n1)C(=O)O	T

Problem: Identify whether the reported pKa of the following molecule is 7 or greater: CCn1nc(C(=O)NCC2=C(C(=O)O)N3C(=O)[C@@H](NC(=O)/C(=N\OC(C)(C)C(=O)O)c4csc(N)n4)[C@H]3SC2)c(=O)c2cc(O)c(O)cc21
Solution: F

Problem: Identify whether the reported pKa of the following molecule is 7 or greater: CCO/N=C(\C(=O)N[C@@H]1C(=O)N2C(C(=O)O)=C(CNC(=O)c3cc(O)c(O)c(C#N)c3)CS[C@H]12)c1csc(N)n1
Solution: F
